# Test Method Notes: NOVARTIS: Cytotoxicity against human hepatocellular carcinoma cell line (Huh7)
# Type: toxicity, cell-based, Huh-7
# Assay Setup: Huh7 cells (hepatocellular carcinoma cell line)
Items are presented alongside their recorded CC50.

# Molecule, CC50
records = [
    ("O=C(Nc1ccccc1)C(=Cc1ccncc1)NC(=O)c1ccccc1", "> 100 µM"),
    ("CSCCN1CCc2ccc3[nH]cc(-c4cccc(Cl)c4)c3c2C1", "> 10 µM"),
    ("COc1cccc(CN2CCN(C(c3ccccc3)c3ccccc3)CC2)c1O", "45.2 µM"),
    ("CC(C)C1c2[nH]c3ccccc3c2CCN1C(=O)CCl (stereo unspecified)", "> 10 µM"),
    ("CCN(CC)C(=O)N1CCN(c2ccc(Nc3ccnc4cc5ccccc5cc34)cc2)CC1", "> 100 µM"),
    ("COc1cc(OC)c(OC)cc1CN1CCN(C(C)C)CC1", "> 10 µM"),
    ("COc1ccc(-n2nc(C(=O)NCCC3=CCCCC3)c3ccccc3c2=O)cc1", "> 100 µM"),
    ("CC(=O)N(C1=C(N2CCOCC2)C(=O)c2ccccc2C1=O)c1ccc(C(C)C)c(C)c1", "9.15 µM"),
    ("O=C(COc1ccc(Cl)cc1)NCCCCNc1ccnc2cc(Cl)ccc12", "> 9.74 µM"),
    ("Cn1c(=O)c2c(nc3n2CC(O)CN3c2ccccc2)n(C)c1=O (stereo unspecified)", "> 10 µM"),
    ("O=C(Nc1cc(C(F)(F)F)ccc1OCc1ccccc1)c1ccccc1O", "> 10 µM"),
]
